Reference source: ChEMBL document CHEMBL1140113

TARGET ENTITY: OCT1 (SLC22A1) (Homo sapiens)
ASSAY NAME: in vitro
CONDITION INFO: hek293
# reported inhibition at 100 µM; entries follow

| COMPOUND | inhibition at 100 µM (%) |
| --- | --- |
| C[C@]12CC[C@H]3[C@@H](CCC4=CC(=O)CC[C@@H]43)[C@@H]1CC[C@@H]2O | 79.3 |
| CN(C)CCCC1(c2ccc(F)cc2)OCc2cc(C#N)ccc21 (stereo not drawn) | 52 |
| Cn1cnc([N+](=O)[O-])c1Sc1ncnc2nc[nH]c12 | 4.2 |

====

# reported inhibition at 100 µM; entries follow
TARGET ENTITY: OCT1 (SLC22A1) (Homo sapiens)
Sequence (O15245 whole entry): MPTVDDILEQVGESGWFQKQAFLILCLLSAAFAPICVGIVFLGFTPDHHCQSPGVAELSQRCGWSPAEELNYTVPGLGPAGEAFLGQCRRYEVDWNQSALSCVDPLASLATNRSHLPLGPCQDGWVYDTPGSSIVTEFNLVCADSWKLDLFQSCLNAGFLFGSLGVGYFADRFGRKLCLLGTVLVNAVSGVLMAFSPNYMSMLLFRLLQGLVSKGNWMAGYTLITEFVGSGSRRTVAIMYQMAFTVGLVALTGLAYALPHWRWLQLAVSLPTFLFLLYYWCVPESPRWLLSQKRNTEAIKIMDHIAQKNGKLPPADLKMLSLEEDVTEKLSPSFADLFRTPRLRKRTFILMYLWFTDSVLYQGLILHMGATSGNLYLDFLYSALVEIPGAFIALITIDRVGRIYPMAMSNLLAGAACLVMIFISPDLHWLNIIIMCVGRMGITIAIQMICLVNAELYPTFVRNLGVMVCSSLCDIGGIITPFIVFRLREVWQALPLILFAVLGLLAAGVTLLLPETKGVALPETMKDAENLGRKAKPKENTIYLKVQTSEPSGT
ASSAY NAME: in vitro
CONDITION INFO: HEK293 cells that express human OCT1, probe 4-(4-(dimethylamino)styryl)-N-methylpyridinium

| COMPOUND | TARGET ENTITY | UNITS TEXT | inhibition at 100 µM |
| --- | --- | --- | --- |
| Cc1cc(=O)n(-c2ccccc2)n1C [ANTIPYRINE] | OCT1 (SLC22A1) (Homo sapiens) | % | 20.7 |
| COc1ccc(CCN(C)CCCC(C#N)(c2ccc(OC)c(OC)c2)C(C)C)cc1OC (stereo not given) | OCT1 (SLC22A1) (Homo sapiens) | % | 86.4 |
| O=P(O)(O)C(Cl)(Cl)P(=O)(O)O | OCT1 (SLC22A1) (Homo sapiens) | % | 5.6 |
| CC(CN1c2ccccc2Sc2ccccc21)N(C)C (stereo not given) | OCT1 (SLC22A1) (Homo sapiens) | % | 71.1 |
| Cn1cc[nH]c1=S | OCT1 (SLC22A1) (Homo sapiens) | % | 11.6 |
| CC(C(=O)O)c1cccc(C(=O)c2ccccc2)c1 (stereo not given) | OCT1 (SLC22A1) (Homo sapiens) | % | -9.4 |
| CNC(=C[N+](=O)[O-])NCCSCc1ccc(CN(C)C)o1 | OCT1 (SLC22A1) (Homo sapiens) | % | 28.8 |
| O=C(O)Cc1ccccc1Nc1c(Cl)cccc1Cl | OCT1 (SLC22A1) (Homo sapiens) | % | -3.7 |
| C[C@H](CS)C(=O)N1CCC[C@H]1C(=O)O | OCT1 (SLC22A1) (Homo sapiens) | % | 0.3 |
| CN1CC[C@]23c4c5ccc(O)c4O[C@H]2[C@@H](O)C=C[C@H]3[C@H]1C5 | OCT1 (SLC22A1) (Homo sapiens) | % | 67.9 |

====

# reported inhibition at 100 µM; entries follow
TARGET ENTITY: OCT1 (SLC22A1) (Homo sapiens)
Sequence (O15245 whole entry): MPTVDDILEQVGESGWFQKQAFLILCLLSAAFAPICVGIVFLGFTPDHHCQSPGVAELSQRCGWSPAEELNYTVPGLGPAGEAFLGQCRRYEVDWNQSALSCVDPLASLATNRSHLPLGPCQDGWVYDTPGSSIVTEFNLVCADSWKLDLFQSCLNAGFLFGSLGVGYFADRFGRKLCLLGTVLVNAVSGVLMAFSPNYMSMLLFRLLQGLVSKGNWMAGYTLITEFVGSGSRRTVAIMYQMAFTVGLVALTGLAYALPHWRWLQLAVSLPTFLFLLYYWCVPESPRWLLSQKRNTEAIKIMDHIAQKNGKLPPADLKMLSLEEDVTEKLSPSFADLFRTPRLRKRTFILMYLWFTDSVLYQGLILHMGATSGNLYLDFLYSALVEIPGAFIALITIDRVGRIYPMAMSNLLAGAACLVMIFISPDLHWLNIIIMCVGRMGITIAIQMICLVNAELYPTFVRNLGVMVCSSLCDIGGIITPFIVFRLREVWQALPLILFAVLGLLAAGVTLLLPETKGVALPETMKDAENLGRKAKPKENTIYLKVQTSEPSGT
ASSAY NAME: in vitro
CONDITION INFO: HEK293 cells that express human OCT1, probe 4-(4-(dimethylamino)styryl)-N-methylpyridinium

| COMPOUND | UNITS TEXT | inhibition at 100 µM |
| --- | --- | --- |
| CCN(CC)CCNC(=O)c1cc(Cl)c(N)cc1OC [METOCLOPRAMIDE] | % | 52.3 |
| N[C@H]1C(O)O[C@H](CO)[C@@H](O)[C@@H]1O (some centres undefined) | % | 13.9 |
| O=C(O)COCCN1CCN(C(c2ccccc2)c2ccc(Cl)cc2)CC1 (centres undefined) | % | -4.8 |
| CN(C)[C@@H]1C(O)=C(C(N)=O)C(=O)[C@@]2(O)C(O)=C3C(=O)c4c(O)cccc4[C@@](C)(O)[C@H]3C[C@@H]12 | % | 10.4 |
| COc1ccc2c3c1O[C@H]1[C@@H](O)C=C[C@H]4[C@@H](C2)N(C)CC[C@@]341 | % | 39.1 |
| CCN(CC)CCNC(=O)c1ccc(N)cc1 [PROCAINAMIDE] | % | 26.5 |
| CN1CC(=O)NC1=N | % | 13.3 |
| CCN(CC)CC(=O)Nc1c(C)cccc1C | % | -2.3 |
| O=C(CCCN1CCC(O)(c2ccc(Cl)cc2)CC1)c1ccc(F)cc1 | % | 67.1 |

====

TARGET ENTITY: OCT1 (SLC22A1) (Homo sapiens, UniProt O15245)
Sequence (O15245 whole entry): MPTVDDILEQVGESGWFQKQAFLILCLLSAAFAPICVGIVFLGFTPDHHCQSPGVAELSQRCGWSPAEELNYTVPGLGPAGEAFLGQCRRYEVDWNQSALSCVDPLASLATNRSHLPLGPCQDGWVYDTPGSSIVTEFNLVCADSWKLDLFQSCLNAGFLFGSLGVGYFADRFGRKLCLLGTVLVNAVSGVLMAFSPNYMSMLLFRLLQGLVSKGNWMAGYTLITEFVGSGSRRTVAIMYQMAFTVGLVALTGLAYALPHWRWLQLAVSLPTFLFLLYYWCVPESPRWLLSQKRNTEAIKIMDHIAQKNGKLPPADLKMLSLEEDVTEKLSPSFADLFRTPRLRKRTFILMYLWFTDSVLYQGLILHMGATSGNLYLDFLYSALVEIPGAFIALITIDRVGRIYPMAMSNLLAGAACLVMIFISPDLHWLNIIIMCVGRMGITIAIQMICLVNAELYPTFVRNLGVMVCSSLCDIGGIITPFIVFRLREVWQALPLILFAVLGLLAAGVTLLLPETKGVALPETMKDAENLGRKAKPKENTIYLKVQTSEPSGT
ASSAY NAME: in vitro
CONDITION INFO: HEK293 cells that express human OCT1, probe 4-(4-(dimethylamino)styryl)-N-methylpyridinium
# reported inhibition at 100 µM; entries follow

| MOLECULE | inhibition at 100 µM |
| --- | --- |
| CN1CCC[C@@H]1CCO[C@](C)(c1ccccc1)c1ccc(Cl)cc1 | 78.8% |
| CC(=O)Oc1ccccc1C(=O)O | -5.7% |
| Cc1nc2n(c(=O)c1CCN1CCC(c3noc4cc(F)ccc34)CC1)CCCC2 | 39.3% |
| Cc1c(C)c2c(c(C)c1O)CCC(C)(COc1ccc(CC3SC(=O)NC3=O)cc1)O2 (centres undefined) | 48.2% |
| O=C1CC2(CCCC2)CC(=O)N1CCCCN1CCN(c2ncccn2)CC1 | 24.7% |
| COc1ccc(Cl)cc1C(=O)NCCc1ccc(S(=O)(=O)NC(=O)NC2CCCCC2)cc1 [GLYBURIDE] | 0.3% |
| CC1COc2c(N3CCN(C)CC3)c(F)cc3c(=O)c(C(=O)O)cn1c23 (centres undefined) | 21.1% |
| CC1=C(C(=O)O)N2C(=O)[C@@H](NC(=O)[C@H](N)c3ccccc3)[C@H]2SC1 [CEPHALEXIN ANHYDROUS] | -1.9% |
| COc1cc2c(c(OC)c1OC)-c1ccc(OC)c(=O)cc1[C@@H](NC(C)=O)CC2 | 31.9% |
